# assay_system: Kras and SOS1 (biotin-tagged human Kras loaded with GDP, His-tagged human SOS1) (Homo sapiens, UniProt P01116, G12D)
# Construct: made in house; host or cells: E. coli (stated for Kras only)
# Sequence (P01116 1-188 isoform P01116-2 G12D): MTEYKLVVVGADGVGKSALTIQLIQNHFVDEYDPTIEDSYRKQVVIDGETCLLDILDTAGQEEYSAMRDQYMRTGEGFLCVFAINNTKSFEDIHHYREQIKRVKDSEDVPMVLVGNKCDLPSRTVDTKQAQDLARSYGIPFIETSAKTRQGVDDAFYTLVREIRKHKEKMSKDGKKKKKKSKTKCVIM
# procedure_details: Protein-protein interaction inhibition between Kras and SOS1 (KrasGl2D-SOS PPI) using AlphaScreen
# Assay type: binding
# condition_notes: AlphaScreen; biotin-tagged human Kras loaded with GDP, His-tagged human SOS1; read-out: KRAS G12D-SOS PPI IC50
Positions of bridges follow the written chain, without caps; N, C: chain ends. Non-standard residues stand in square brackets, D forms with d. Residues, ends and D or L forms follow the SMILES beside them. *: point of attachment. hPhe(3-Cl-4-CF3) = N[C@@H](CCc1ccc(C(F)(F)F)c(Cl)c1)C(=O)O; NMePhe(4-Cl) = CN[C@@H](Cc1ccc(Cl)cc1)C(=O)O; NMePhe(4-Me) = CN[C@@H](Cc1ccc(C)cc1)C(=O)O; Phe(4-F) = N[C@@H](Cc1ccc(F)cc1)C(=O)O; Pro(4,4-F2) = O=C(O)[C@@H]1CC(F)(F)CN1; NMeChg = CN[C@H](C(=O)O)C1CCCCC1; NMeD = CN[C@@H](CC(=O)O)C(=O)O; NMeL = CN[C@@H](CC(C)C)C(=O)O; NMeNva = CCC[C@H](NC)C(=O)O; NMeAib = CNC(C)(C)C(=O)O; Nle = CCCC[C@H](N)C(=O)O; Piperidide = C1CCN(*)CC1; Pyrrolidide = C1CCN(*)C1; Ac5c = NC1(C(=O)O)CCCC1; Sar = CNCC(=O)O
In this section, each of the molecules is paired with its reported IC50.

| molecule | value_units | IC50 |
| --- | --- | --- |
| CCC[C@H]1C(=O)N[C@@H]([C@@H](C)CC)C(=O)N(C)CC(=O)N(C)CC(=O)N(C)[C@@H](Cc2ccc(C)cc2)C(=O)N(C)CC(=O)N[C@@H](CCc2ccc(C(F)(F)F)c(Cl)c2)C(=O)N2CC(F)(F)C[C@H]2C(=O)NC2(CCCC2)C(=O)N(C)[C@@H](C2CCCCC2)C(=O)N(C)[C@H](C(=O)N2CCCC2)CC(=O)N1C [Compound 1296] ([NMeNva]I[Sar][Sar][NMePhe(4-Me)][Sar][hPhe(3-Cl-4-CF3)][Pro(4,4-F2)][Ac5c][NMeChg][NMeD]-Pyrrolidide; lactam N-11) | nM | 0.59 |
| CCCC[C@@H]1NC(=O)[C@H](Cc2ccc(F)cc2)NC(=O)CN(C)C(=O)[C@H](Cc2ccc(Cl)cc2)N(C)C(=O)CN(C)C(=O)CN(C)C(=O)[C@H]([C@@H](C)CC)NC(=O)[C@H](CC(C)C)N(C)C(=O)C[C@@H](C(=O)N2CCCCC2)N(C)C(=O)[C@H](CC(C)C)NC(=O)C(C)(C)N(C)C1=O [Compound 1305] ([NMeL]I[Sar][Sar][NMePhe(4-Cl)][Sar][Phe(4-F)][Nle][NMeAib]L[NMeD]-Piperidide; lactam N-11) | nM | 240 |
